Numbers sourced from patent US20240409585A1.

- target desc: PE-labeled human PD-L1-Ig binding to Jurkat cell line over-expressing human PD-1 (Jurkat-PD-1) (Homo sapiens)
- Construct: expressed in transfected cells; host or cells: Jurkat
- Sequence (Q15116 25-288): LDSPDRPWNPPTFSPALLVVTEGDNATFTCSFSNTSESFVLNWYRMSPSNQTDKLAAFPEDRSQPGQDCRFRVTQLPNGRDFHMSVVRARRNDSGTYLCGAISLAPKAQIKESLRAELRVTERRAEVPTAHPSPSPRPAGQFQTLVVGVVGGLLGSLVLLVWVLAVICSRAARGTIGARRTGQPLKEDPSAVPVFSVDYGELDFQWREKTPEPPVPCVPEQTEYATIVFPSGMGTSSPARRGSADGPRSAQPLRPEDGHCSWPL
- experiment description: Jurkat-PD-1 Cell Binding High-Content Screening Assay (CBA): Method 1
- test conditions: Jurkat-hPD-1 cells, PE-labeled PD-L1-Ig 20 nM final; read-out: Jurkat HPDL1 PD1 IC50 (uM) (Method 1)
Bridge positions count the residues as written; N and C are the ends. Square brackets hold non-standard residues; d marks the D form. Peptide text beside a SMILES is read from it. Bip = N[C@@H](Cc1ccc(-c2ccccc2)cc1)C(=O)O; NMeA = CN[C@@H](C)C(=O)O; Orn = NCCC[C@H](N)C(=O)O
// reported IC50 per item

CC(C)C[C@@H]1NC(=O)[C@H](CCCNC(=N)N)NC(=O)[C@@H](CC(C)C)NC(=O)[C@H](C)N(C)C(=O)[C@H](CCCN)NC(=O)[C@H](Cc2ccc(-c3ccccc3)cc2)NC(=O)[C@H](C(C)C)NC(=O)[C@H](Cc2c[nH]c3ccccc23)NC(=O)[C@H](CC(=O)O)NC(=O)[C@H](Cc2ccc(O)cc2)NC(=O)[C@H](CC(N)=O)NC(=O)CSC[C@@H](C(=O)N[C@@H](C)C(N)=O)NC(=O)[C@H]([C@@H](C)O)NC(=O)[C@H](C(C)C)NC1=O [Compound 1288] ({CH2CO}-NYDWV[Bip][Orn][NMeA][dL]RLVTCA-NH2; thioether N-14) | 0.08 µM

Next up:
Entry CC(C)C[C@@H]1NC(=O)[C@H](Cc2c[nH]c3ccccc23)NC(=O)[C@H](CC(=O)O)NC(=O)[C@H](Cc2ccc(O)cc2)NC(=O)[C@H](Cc2ccccc2)NC(=O)CSC[C@@H](C(=O)NCC(N)=O)NC(=O)[C@H](CO)NC(=O)[C@H](C(C)C)NC(=O)[C@H](CC(C)C)NC(=O)[C@H](CC(N)=O)NC(=O)[C@H](CO)NC(=O)[C@H](C)N(C)C(=O)[C@H](C(C)C)NC(=O)[C@H](Cc2ccc(-c3ccccc3)cc2)NC1=O [Compound 1007] ({CH2CO}-FYDWL[Bip]V[NMeA]SNLVSCG-NH2; thioether N-14) — recorded IC50 = 0.26 µM
